Reported folding stability dG unfold values for the following sequences.
TEST_SUMMARY: folding stability dG unfold from trypsin proteolysis; higher = more stable

[
  {
    "CHAIN": "SAGGSALKIMVEPDPEDGTVRVWFMIPNPENGEEFMVQAEIDPNGKIEDVEVYPNGNMIWITFKLPSAGGSA [r15_557_TrROS]",
    "UNIT_SPEC": "kcal/mol",
    "folding stability dG unfold": 2.4
  },
  {
    "CHAIN": "SAGGSAGGSSLTLRLRLRLRVRVLDEETGELSEFEVEVELELRFEPAPPPPPPPLVLRDGKLVSAGGSAGGS [r12_140_TrROS_Hall]",
    "UNIT_SPEC": "kcal/mol",
    "folding stability dG unfold": 3.43
  },
  {
    "CHAIN": "ADPDVKVEVEFEVLPDGRLRVTAVDPDTGVVVEVEAPVDGAGPVTVRVRVRVFDPETGEVSTFEAEFTLPLS [r1_45_TrMRF]",
    "UNIT_SPEC": "kcal/mol",
    "folding stability dG unfold": 3.71
  },
  {
    "CHAIN": "SAGGSAGGKIEEIAKKLNLEVESIEYDKETKKVTVTIKVNGKLYKIEIYVENGKIVKIKIEELPSAGGSAGG [r6_373_TrROS_Hall]",
    "UNIT_SPEC": "kcal/mol",
    "folding stability dG unfold": 3.3
  },
  {
    "CHAIN": "SAGMLTLRVVLPKEEAEARARALAEELRRRLGLPPGAKIEVKVVEYDEETGEVVVEVTIEVELPPGVEPSAG [r5_537_TrROS_Hall]",
    "UNIT_SPEC": "kcal/mol",
    "folding stability dG unfold": 4.27
  },
  {
    "CHAIN": "SAGGSAGGNKPIMVRIKIWHDNGKTRRFFVQIPEGFDDPSELASELAKEFNKQYPNYRIEVEPFSAGGSAGG [r6_132_TrROS]",
    "UNIT_SPEC": "kcal/mol",
    "folding stability dG unfold": 2.55
  },
  {
    "CHAIN": "SAGGSAGGSAGVVEPTVVSRAPDGTLTVVLNLPDGSTRTVTDPTNVTIGDRPINALTNASSAGGSAGGSAGG [r11_1017_JUSTAS]",
    "UNIT_SPEC": "kcal/mol",
    "folding stability dG unfold": -0.956
  }
]

----------
Here, each record is paired with measured folding stability dG unfold data.
TEST_SUMMARY: folding stability dG unfold from trypsin proteolysis; higher = more stable

[
  {
    "CHAIN": "SAGGSAGGSAGKTIYAPYSKIPEVIEELKKKGYEIDSIEKVPNGSYKISFKNKPIEINLGSAGGSAGGSAGG [r17_379_TrMRF]",
    "folding stability dG unfold / kcal/mol": 3.24
  },
  {
    "CHAIN": "SAGWISPKQLRHALRNGKPIKIYMPNPQNKEHAKNWLRQETGLPKEEQKELLKDVKIEPMPPNDPNFKKSAG [r5_368_TrROS]",
    "folding stability dG unfold / kcal/mol": 0.128
  },
  {
    "CHAIN": "SAGGSAGGSAGGMVIVKVHLPNGNTLTFVFPGMTLDEIREELASQGGKIKEIEIVPMENSAGGSAGGSAGGS [r10_572_TrROS]",
    "folding stability dG unfold / kcal/mol": 2.17
  },
  {
    "CHAIN": "SAGGSAETAIDLGPPNTTGVLEIEYFDENGNTRRATATFDPNPATISFNEPVEIPPNARIEIKPTSSAGGSA [r15_198_TrMRF]",
    "folding stability dG unfold / kcal/mol": -0.405
  }
]

----------
TEST_SUMMARY: folding stability dG unfold from chymotrypsin proteolysis; higher = more stable
Rule: T for folding stability dG unfold not less than 2 kcal/mol, F for anything less.

[
  {
    "CHAIN": "SAKYKIIEAKPGKNVVTITVEYTLPNGEKLTKPIPINAINPVIVEVSEDSITIYDPNNGKLITFPAEKLSAG [r14_947_TrMRF]",
    "LABEL": "T"
  },
  {
    "CHAIN": "SAGGSAGGSSGMVKAEFGLVAPDGTPVSTRTLTFSSEEEIEEALAALPEFSLALVPDVKRGPLSAGGSAGGS [r12_182_JUSTAS]",
    "LABEL": "F"
  },
  {
    "CHAIN": "SAGGSAGGSSLTLRLRLRLRVRVLDEETGELSEFEVEVELELRFEPAPPPPPPPLVLRDGKLVSAGGSAGGS [r12_140_TrROS_Hall]",
    "LABEL": "T"
  },
  {
    "CHAIN": "SAGSSSVTLFPEYTITTTTLPDGSRSVTINFTNPEEAKKLFEENPEIKELIEKFKKEGWDVKINAKNPSSAG [r14_873_JUSTAS]",
    "LABEL": "T"
  },
  {
    "CHAIN": "SAGGSAETITVMIPPNFLKKLKDQGIKIPPGYPWITITVTYNPDGKIKIKVQIQPMPPVSPEDMKKSAGGSA [r15_322_TrROS]",
    "LABEL": "T"
  },
  {
    "CHAIN": "SAGGKVYYIEIPPELLEAFPDLVVEPVEQPEDFVVAPVFLSDKVLLVPIRVFSEDGKELFDFTLTSNPSAGG [r13_129_TrMRF]",
    "LABEL": "F"
  },
  {
    "CHAIN": "SAGMLSVEQLLEALKEGKEILIVAESPEERERAKRLLAEELGLSEEEIDALLKKAKIKVLPADDPELKKSAG [r5_368_TrROS_Hall]",
    "LABEL": "T"
  },
  {
    "CHAIN": "SAGMDPSDPNSITTLTTEVEPLPDGSTRVTTYTKLPDGTIVKNVTTLDPAGNVLTTTTTPIPPEALNASAGG [r19_285_JUSTAS]",
    "LABEL": "T"
  },
  {
    "CHAIN": "SAGGSAEEEVVETEVVYDPETKELHVRTKVFKPKPEITIEVDMSLEEVKALLEELTGRKIDRVEIKSAGGSA [r15_101_TrROS_Hall]",
    "LABEL": "F"
  },
  {
    "CHAIN": "SAGGSAGGSAVVSVSPDGYLRLAYYPETGELRELPPDVSVEEFLEAFPDVVVLAAPVAPTPESAGGSAGGSA [r18_53_TrMRF]",
    "LABEL": "F"
  },
  {
    "CHAIN": "SAGGVTVSLSDPLSGNITTVPVAPNSTVTVTTSASLGGPNYTITTTVTVTLNGSTPVFTITSTVTPLSSAGG [r19_331_JUSTAS]",
    "LABEL": "T"
  },
  {
    "CHAIN": "EEWYIIQIKIEYWGPNGKEREIDIMVLIPPEQMTPDQLKQVKEIAREIAENLQENGYNIEINVEIIPLDDMS [r1_221_TrROS]",
    "LABEL": "T"
  },
  {
    "CHAIN": "SAGTITKLKTEYDPKGYRFIELLDPLPNDPSVPAEALAQEIKEKYGAEKAEIKPVPGTGAIRILLIKPESAG [r14_228_JUSTAS]",
    "LABEL": "F"
  }
]

----------
TEST_SUMMARY: folding stability dG unfold from chymotrypsin proteolysis; higher = more stable
PROPERTY_MEASURED: folding stability dG unfold (kcal/mol)

[
  {
    "CHAIN": "SAGGSAGGSASVVADENKIVVTFPNGKVVELDLSDPKKAKEKLLALKPLDIPPITLELVPPASAGGSAGGSA [r18_68_JUSTAS]",
    "NUMERIC_READOUT": 0.842
  },
  {
    "CHAIN": "SAGMKKPPPPTVTIKIRVNGKTITITVYPDGTVTVTFENGEKKTIKMTPEEVEKLLKELEKKGYEIELVSAG [r5_753_TrROS_Hall]",
    "NUMERIC_READOUT": 0.664
  },
  {
    "CHAIN": "SAGGMVFTITVRNPDGTVVELPFDVSDVTITPKNGDLYITVAGGKVLTLKTDEVLDIDPAAIAAANAASAGG [r13_925_JUSTAS]",
    "NUMERIC_READOUT": 1.26
  },
  {
    "CHAIN": "SAGGMEVTFPVSPDLSPEEVRARIEAEIRPIAEARGAVDVEVPIVEYRRLPPDSVEFRFKVTVRFPRSAGGS [r8_184_JUSTAS]",
    "NUMERIC_READOUT": 2.4
  },
  {
    "CHAIN": "SAGGSAGGSMPVKRELIITVTEPSSGTTRTLVVEVETEEEAEAVVAAVAAVPDRTVTEVRRLASAGGSAGGS [r12_152_JUSTAS]",
    "NUMERIC_READOUT": 1.26
  },
  {
    "CHAIN": "SAGEERTVRVEIEIVVKTEEELEALKALFPNAEATRNEDGLLTLRLTIEVRVAPPVVVRDPETNELLELSAG [r5_129_TrROS_Hall]",
    "NUMERIC_READOUT": 2.42
  },
  {
    "CHAIN": "SAGGAPSSFSTSSDPDGTQLLVVTEPGSGKPRTVRIPPGLNEAVTIPPSRSVSSVELVRVSPASPALLSAGG [r13_122_JUSTAS]",
    "NUMERIC_READOUT": -0.734
  }
]
